Values compiled from paper PMC9972897.

testedTarget: SD1-RBD of SARS-CoV-2 S (ancestral), aa 319-591 (SARS-CoV-2, ancestral (Wuhan-Hu-1; …, UniProt P0DTC2)

binder	binding result
sd1.102 (antibody, V domains shown) VH: QVQLVQSGAEVKKPGSSVKVSCKASGGTFSSYAISWVRQAPGQGLEWMGGIIPLYGTANYAQKFQGRVTITADESTSTTYMELSSLTSEDTAVYYCVRFRGGDYYYYYGMDVWGQGTTVTVSS VL: EIVMTQSPATLSVSPGESATLSCRASQTVSTNLAWYQQKPGQAPRLLIFGASTRATGIPARFSGSGSGTEFTLSISSLQSEDFAVYYCHQYNSRRTFGQGTKLEIK	binds
sd1.108 (antibody, V domains shown) VH: QVQLVQSGAEVKKPGASVKVSCKASGYTFTSYYIHWVRQTPGQGLEWMGIINPRGGSTSYPQKFQGRVSMTRDTSTSTVFMELSSLRSDDTAVYYCAREHREDTAMDNQPSDSWGQGTLVTVSS VL: DIVMTQSPDSLSVSLGERATINCKSSRSVFYSSNNKSYLAWYQQKPGQPPKLLIYWASTRESGVRDRFSGSGSGTDFTLTISSLQAEDVAVYYCQQYYNTPYTFGQGTKLEIK	binds
sd1.127 (antibody, V domains shown) VH: EVQLVESGGALVKPGGSLTLSCVASGFTFSHAWMTWVRQAPGKGLEWVGRIKTKTEGGTIDYAAPLRGRFTISRDDSKNTLYLRMNSLKIEDTAKYYCTTHSSPDYWGQGTLVTVSS VL: DIQMTQSPSSLSASIGDRVTITCRASQGIGNSLLWYQQKRGKVPKLLIYAASTLQSGVPSRFSGSGSGTDFTLTISSLQPEDVATYYCQRYNSAPLTFGGGTKVEIK	binds
